Assay target: Cytochrome P450 1B1 (Homo sapiens)
Sequence (Q16678 whole entry): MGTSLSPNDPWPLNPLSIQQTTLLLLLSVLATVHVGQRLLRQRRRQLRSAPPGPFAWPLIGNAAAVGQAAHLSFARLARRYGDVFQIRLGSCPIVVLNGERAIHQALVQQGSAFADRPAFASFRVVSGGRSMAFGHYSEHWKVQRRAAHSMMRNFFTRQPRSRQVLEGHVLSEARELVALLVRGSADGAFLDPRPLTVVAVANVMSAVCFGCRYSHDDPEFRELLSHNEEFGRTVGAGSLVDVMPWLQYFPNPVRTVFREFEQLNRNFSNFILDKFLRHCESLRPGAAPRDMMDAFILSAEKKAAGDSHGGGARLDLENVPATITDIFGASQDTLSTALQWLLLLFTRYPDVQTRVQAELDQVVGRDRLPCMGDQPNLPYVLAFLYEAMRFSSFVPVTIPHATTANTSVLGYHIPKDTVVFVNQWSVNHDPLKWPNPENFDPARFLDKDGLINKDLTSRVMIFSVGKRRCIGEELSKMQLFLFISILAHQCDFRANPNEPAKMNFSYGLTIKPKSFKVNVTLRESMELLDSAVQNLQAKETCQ
Measurement protocol: Inhibition of human recombinant CYP1B1 using 7-ethoxyresorufin as substrate incubated under dark condition for 30 mins in presence of NADPH by EROD fluorescence assay
pIC50: −log10 of the molar value.
Property: pIC50

Here is how some compounds turned out for pIC50.
Prompt: # lookup: pIC50 of "N#Cc1ccc(NC(=O)c2nc(-c3ccccc3)cs2)cc1"
Response: 8.11

Prompt: # lookup: pIC50 of "COc1cc(NC(=O)c2nc(-c3ccccc3F)cs2)cc(OC)c1"
Response: 7.78

Prompt: # lookup: pIC50 of "Cc1ccc(-c2csc(C(=O)Nc3cc(Cl)cc(Cl)c3)n2)cc1"
Response: 7.99

I: Cc1sc(C(=O)Nc2ccc(OC(F)F)cc2)nc1-c1cccc(F)c1
II: O=C(Nc1cc(Cl)cc(Cl)c1)c1nc(-c2ccc(Br)cc2)cs1
III: Cc1sc(C(=O)Nc2cc(Cl)cc(Cl)c2)nc1-c1cccc(Cl)c1
Prompt: Please produce an ascending ranking of these compounds based on pIC50. Submit the labels in the order that the ranking request calls for.
Response: II, I, III
(II: 7.58, I: 8.52, III: 8.77)

====

Organism: Homo sapiens
Measurement protocol: Selectivity index, ratio of IC50 for human recombinant CYP1A2 to IC50 for human recombinant CYP1B1 using 7-ethoxyresorufin as substrate
Property: Ratio IC50

Prompt: # lookup: Ratio IC50 of "Cc1ccc(-c2csc(C(=O)Nc3cc(Cl)cc(Cl)c3)n2)cc1"
Response: 1430

Prompt: # lookup: Ratio IC50 of "COc1ccc(NC(=O)c2nc(-c3ccccc3)cs2)cc1"
Response: 80.2

Prompt: # lookup: Ratio IC50 of "O=C(Nc1cc(Cl)cc(Cl)c1)c1nc(-c2ccccc2Cl)cs1"
Response: 67.6

Prompt: # lookup: Ratio IC50 of "O=C(Nc1ccc(OC(F)F)cc1)c1nc(-c2cccc(F)c2)cs1"
Response: 34400

I: O=C(Nc1ccc(I)cc1)c1nc(-c2ccc(F)cc2)cs1
II: O=C(Nc1cc(Cl)cc(Cl)c1)c1nc(-c2ccc(O)cc2)cs1
Prompt: Min Ratio IC50? I | II Respond with the label that goes with your answer.
Response: I
(I: 162, II: 967)

====

Assay target: Cytochrome P450 1A2 (Homo sapiens)
Sequence (P05177 whole entry): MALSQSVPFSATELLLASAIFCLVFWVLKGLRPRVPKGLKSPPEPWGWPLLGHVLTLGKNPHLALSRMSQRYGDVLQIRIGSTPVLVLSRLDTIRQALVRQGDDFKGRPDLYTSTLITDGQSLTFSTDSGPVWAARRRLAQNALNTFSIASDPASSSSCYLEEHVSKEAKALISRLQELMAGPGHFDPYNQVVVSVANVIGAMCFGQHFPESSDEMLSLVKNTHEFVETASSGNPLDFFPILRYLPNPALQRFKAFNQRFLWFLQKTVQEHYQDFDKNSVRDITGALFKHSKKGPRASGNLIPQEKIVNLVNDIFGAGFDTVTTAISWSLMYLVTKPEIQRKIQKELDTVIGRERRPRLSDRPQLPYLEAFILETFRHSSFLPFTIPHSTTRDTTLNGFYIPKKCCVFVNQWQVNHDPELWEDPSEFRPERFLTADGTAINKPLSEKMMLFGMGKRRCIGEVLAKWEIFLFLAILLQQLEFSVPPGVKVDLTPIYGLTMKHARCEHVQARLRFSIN
Measurement protocol: Inhibition of human recombinant CYP1A2 using 7-ethoxyresorufin as substrate incubated under dark condition for 45 mins in presence of NADPH by EROD fluorescence assay
Property: IC50

Here is how some compounds turned out for IC50.
Prompt: # lookup: IC50 of "NC(=O)c1cccc(-c2csc(C(=O)Nc3cc(Cl)cc(Cl)c3)n2)c1"
Response: > 100 µM

Prompt: # lookup: IC50 of "NC(=O)c1ccc(-c2csc(C(=O)Nc3cc(Cl)cc(Cl)c3)n2)cc1"
Response: > 10 µM

Prompt: # lookup: IC50 of "N#Cc1cccc(-c2csc(C(=O)Nc3ccc(OC(F)F)cc3)n2)c1"
Response: > 50 µM

Others:
Prompt: # lookup: IC50 of "CCc1sc(C(=O)Nc2cc(Cl)cc(Cl)c2)nc1-c1ccc(F)cc1"
Response: > 100 µM

Prompt: # lookup: IC50 of "O=C(Nc1cc(Cl)cc(Cl)c1)c1nc(-c2ccnc(Cl)c2)cs1"
Response: > 100 µM

====

Assay target: CYP1B1 (Homo sapiens)
Measurement protocol: Inhibition of human recombinant CYP1B1 using 7-ethoxyresorufin as substrate at 100 uM incubated under dark condition for 30 mins in presence of NADPH by EROD fluorescence assay relative to control
Format: ADME
Condition label: recombinant CYP1B1, probe 7-ethoxyresorufin
Property: inhibition at 0.5 h, 100 µM (%)

Here is how some molecules turned out for inhibition at 0.5 h, 100 µM.
Prompt: # lookup: inhibition at 0.5 h, 100 µM of "O=C(Nc1ccc(N2CCOCC2)cc1)c1nc(-c2ccccc2)cs1"
Response: 20.5

Prompt: # lookup: inhibition at 0.5 h, 100 µM of "O=C(Nc1ccc(C(F)(F)F)cc1)c1nc(-c2ccccc2)cs1"
Response: 99.5

Prompt: # lookup: inhibition at 0.5 h, 100 µM of "O=C(Nc1ccc(-n2ccnc2)cc1)c1nc(-c2ccccc2)cs1"
Response: 102

Prompt: # lookup: inhibition at 0.5 h, 100 µM of "O=C(Nc1ccc(OC(F)F)cc1)c1nc(-c2ccccc2)cs1"
Response: 100

Prompt: # lookup: inhibition at 0.5 h, 100 µM of "COc1cc(NC(=O)c2nc(-c3ccccc3)cs2)cc(OC)c1OC"
Response: 62.8

Prompt: # lookup: inhibition at 0.5 h, 100 µM of "O=C(Nc1ccc(Cl)cc1)c1nc(-c2ccccc2)cs1"
Response: 102

Prompt: # lookup: inhibition at 0.5 h, 100 µM of "COc1cc(Cl)cc(NC(=O)c2nc(-c3ccccc3)cs2)c1"
Response: 96.5

Prompt: # lookup: inhibition at 0.5 h, 100 µM of "O=C(Nc1cc(Cl)cc(Cl)c1)c1nc(-c2ccccc2)cs1"
Response: 102

Prompt: # lookup: inhibition at 0.5 h, 100 µM of "COc1cc(NC(=O)c2nc(-c3ccccc3)cs2)cc(OC)c1"
Response: 87.4

Prompt: # lookup: inhibition at 0.5 h, 100 µM of "O=C(Nc1ccc(I)cc1)c1nc(-c2ccccc2)cs1"
Response: 100

a: O=C(Nc1ccc(-c2ccccc2)cc1)c1nc(-c2ccccc2)cs1
b: O=C(Nc1ccc(N2CCNCC2)cc1)c1nc(-c2ccccc2)cs1
Prompt: Higher inhibition at 0.5 h, 100 µM between a and b ? Respond with the label that goes with your answer.
Response: a
(a: 21.2%, b: 8.7%)

====

Species on record: Homo sapiens
Measurement protocol: Selectivity index, ratio of IC50 for human recombinant CYP1A2 to IC50 for human recombinant CYP1B1 using 7-ethoxyresorufin as substrate
Property: Ratio IC50

Prompt: # lookup: Ratio IC50 of "O=C(Nc1ccc(F)cc1)c1nc(-c2ccccc2)cs1"
Response: 9.2

Prompt: # lookup: Ratio IC50 of "O=C(Nc1cc(Cl)ccc1Cl)c1nc(-c2ccccc2)cs1"
Response: 8

Numbers sourced from ChEMBL document CHEMBL6182948.
